// provenance: patent US7803930B2

# System: human apolipoprotein B mRNA
# method.summary: Inhibition of human apolipoprotein B mRNA levels in HepG2 cells, quantitative real-time PCR
# Assay type: cell-based
# condition.parameters: HepG2 cells treated with 150 nM of compound; averages from two experiments; quantitative real-time PCR
In the oligonucleotide strings, read from the 5' end, every base follows the letter of its sugar. An asterisk marks phosphorothioate; unmarked linkages are phosphodiester. Other units and linkages are bracketed, terminal groups are in braces. A string of capitals states the bases alone. e = 2'-O-(2-methoxyethyl) (MOE); [5mC] = 5-methylcytosine; d = 2'-deoxy (DNA)
Measured % INHIB (inhibition of human apolipoprotein B mRNA levels) values are reported for all entries that follow.
Give the quantity in %, number only.

Query block: Give human apolipoprotein B mRNA % INHIB (inhibition of human apolipoprotein B mRNA levels) for 281629 (antisense eT*e[5mC]*e[5mC]*eA*eA*dG*dT*d[5mC]*d[5mC]*dT*dG*dG*d[5mC]*dT*dG*eT*eA*eT*eT*e[5mC]) [compound 281629]
Result block: 83

Query block: Kindly state the measured % INHIB (inhibition of human apolipoprotein B mRNA levels) obtained for 301025 (eT*eA*eT*eG*eT*dG*dA*dA*dA*dG*dT*dT*d[5mC]*dA*dA*eT*eT*eG*eG*eA; antisense) [compound 301025] with human apolipoprotein B mRNA.
Result block: 76

Query block: Request body: readout % INHIB (inhibition of human apolipoprotein B mRNA levels), system human apolipoprotein B mRNA, query 281613 (antisense eG*eT*eA*eT*eG*dG*dA*dA*dA*dT*dA*dA*d[5mC]*dA*d[5mC]*e[5mC]*e[5mC]*eT*eT*eG) [compound 281613] . Return the value.
Result block: 70

Query block: Give % INHIB (inhibition of human apolipoprotein B mRNA levels) (human apolipoprotein B mRNA) of the following substance: 281591 (eT*eG*e[5mC]*e[5mC]*eA*d[5mC]*dA*dT*dT*dG*d[5mC]*d[5mC]*d[5mC]*dT*dT*e[5mC]*e[5mC]*eT*e[5mC]*eG; antisense) [compound 281591]
Result block: 90

Query block: What is its % INHIB (inhibition of human apolipoprotein B mRNA levels) for human apolipoprotein B mRNA? Entry: 281594 (eG*eA*eT*eG*eG*d[5mC]*dT*dT*d[5mC]*dT*dG*d[5mC]*d[5mC]*dA*d[5mC]*eA*eT*eG*e[5mC]*eT; antisense) [compound 281594]
Result block: 74

Query block: Give % INHIB (inhibition of human apolipoprotein B mRNA levels) (human apolipoprotein B mRNA) of the following substance: 281626 (antisense eA*eT*eG*eT*eG*d[5mC]*dA*dT*d[5mC]*dG*dA*dT*dG*dG*dT*e[5mC]*eA*eT*eG*eG) [compound 281626]
Result block: 88

Query block: Can you look up % INHIB (inhibition of human apolipoprotein B mRNA levels) on human apolipoprotein B mRNA for 281623 (antisense e[5mC]*e[5mC]*e[5mC]*eA*eT*d[5mC]*d[5mC]*dA*dG*dA*d[5mC]*dT*dG*dA*dA*eT*eT*eT*eT*eG) [compound 281623] ?
Result block: 59

Query block: Observed % INHIB (inhibition of human apolipoprotein B mRNA levels) on human apolipoprotein B mRNA for 281649 (eG*e[5mC]*e[5mC]*eA*eT*d[5mC]*d[5mC]*dT*dT*d[5mC]*dT*dG*dA*dG*dT*eT*e[5mC]*eA*eG*eA; antisense) [compound 281649] , please.
Result block: 76

Query block: What value of % INHIB (inhibition of human apolipoprotein B mRNA levels) on human apolipoprotein B mRNA does 281617 (antisense eA*e[5mC]*e[5mC]*eA*e[5mC]*dA*dG*dA*dG*dT*d[5mC]*dA*dG*d[5mC]*d[5mC]*eT*eT*e[5mC]*eA*eT) [compound 281617] have?
Result block: 89

Query block: Fill in the recorded % INHIB (inhibition of human apolipoprotein B mRNA levels) for this substance, with human apolipoprotein B mRNA as test system: 271000 (antisense eG*e[5mC]*eA*eG*e[5mC]*dT*d[5mC]*d[5mC]*dT*dG*dG*dG*dT*d[5mC]*d[5mC]*e[5mC]*eT*eG*eT*eA) [compound 271000]
Result block: 22

Query block: What value of % INHIB (inhibition of human apolipoprotein B mRNA levels) on human apolipoprotein B mRNA does 271048 (e[5mC]*eT*eG*eA*eA*dG*dA*dT*dT*dA*d[5mC]*dG*dT*dA*dG*e[5mC]*eA*e[5mC]*e[5mC]*eT; antisense) [compound 271048] have?
Result block: 7

Query block: Lab note: need % INHIB (inhibition of human apolipoprotein B mRNA levels) for 281641 (e[5mC]*e[5mC]*eG*eA*eA*d[5mC]*d[5mC]*d[5mC]*dT*dT*dG*dA*d[5mC]*dA*dT*e[5mC]*eT*e[5mC]*e[5mC]*eT; antisense) [compound 281641] on human apolipoprotein B mRNA, anyone have it?
Result block: 72

Query block: Provide value of % INHIB (inhibition of human apolipoprotein B mRNA levels) for this record tested with human apolipoprotein B mRNA: 301035 (eT*eT*e[5mC]*eT*eG*d[5mC]*dT*dT*dA*dT*dA*dG*dT*d[5mC]*dT*eA*e[5mC]*eT*eG*e[5mC]; antisense) [compound 301035]
Result block: 82

Query block: Quick check: % INHIB (inhibition of human apolipoprotein B mRNA levels) on human apolipoprotein B mRNA, item 301017 (eT*e[5mC]*e[5mC]*eT*e[5mC]*dA*dG*d[5mC]*dG*dG*d[5mC]*dA*dG*d[5mC]*dA*eA*e[5mC]*e[5mC]*eG*eA; antisense) [compound 301017] ?
Result block: 47

Query block: Quick check: % INHIB (inhibition of human apolipoprotein B mRNA levels) on human apolipoprotein B mRNA, item 281632 (antisense eT*eG*eA*eT*eA*dG*dT*dG*d[5mC]*dT*d[5mC]*dA*dT*d[5mC]*dA*eA*eG*eA*e[5mC]*eT) [compound 281632] ?
Result block: 75
